These measurements were taken from PubChem BioAssay AID1745844.

test system: rodent lifetime carcinogenesis bioassay, tumor incidence TD50; assay: carcinogenic potency in animals, long-term in vivo studies, CPDB compilation (AID 1745844); details: rat; strain Fischer 344; females; inhaled; site: liver; lesion: hepatocellular adenoma + hepatocellular carcinoma; dosed 103 weeks; study length 104 weeks
property: TD50

Exam item: What value of TD50 has been recorded for this entry: FC(F)=C(F)F
Marked response: 156 mg/kg/day

====

system: rodent lifetime carcinogenesis bioassay, tumor incidence TD50; experiment: carcinogenic potency in animals, long-term in vivo studies, CPDB compilation (AID 1745844); conditions: rat; strain Fischer 344; males; in feed; site: kidney/pelvis; lesion: transitional-cell papilloma; dosed 104 weeks; study length 104 weeks
property: TD50

Exam item: What value of TD50 has been recorded for this entry: ClC1(Cl)C2(Cl)C3(Cl)C4(Cl)C(Cl)(Cl)C5(Cl)C3(Cl)C1(Cl)C5(Cl)C24Cl (stereo unspecified)
Marked response: 13.5 mg/kg/day

====

test system: rodent lifetime carcinogenesis bioassay, tumor incidence TD50; test: carcinogenic potency in animals, long-term in vivo studies, CPDB compilation (AID 1745844); settings: rat; strain Wistar; males; in drinking water; site: testis; lesion: interstitial-cell adenoma, bilateral + interstitial-cell adenoma; dosed 103 weeks; study length 103 weeks
property: TD50 (mg/kg/day)
Give bare numbers, in mg/kg/day.

Exam item: What value of TD50 has been recorded for this entry: c1ccncc1
Marked response: 22.4

====

test system: rodent lifetime carcinogenesis bioassay, tumor incidence TD50; assay: carcinogenic potency in animals, long-term in vivo studies, CPDB compilation (AID 1745844); settings: rat; strain F344/DuCrj; males; in drinking water; site: peritoneum; lesion: mesothelioma; dosed 104 weeks; study length 105 weeks
property: TD50

Exam item: What value of TD50 has been recorded for this entry: C1COCCO1
Marked response: 246 mg/kg/day

====

tested on: rodent lifetime carcinogenesis bioassay, tumor incidence TD50; test: carcinogenic potency in animals, long-term in vivo studies, CPDB compilation (AID 1745844); conditions: rat; strain Sprague-Dawley; females; inhaled; site: kidney; lesion: tubular-cell adenocarcinoma; dosed 104 weeks; study length 159 weeks
property: TD50 (mg/kg/day)
Numbers only, in mg/kg/day.

Exam item: Could you share what TD50 was measured for ClC=C(Cl)Cl , tested on rodent lifetime carcinogenesis bioassay, tumor incidence TD50?
Marked response: 43200

====

test system: rodent lifetime carcinogenesis bioassay, tumor incidence TD50; experiment: carcinogenic potency in animals, long-term in vivo studies, CPDB compilation (AID 1745844); conditions: rat; strain Fischer 344; males; in drinking water; site: any site (literature study); lesion: several types; types named in the paper; dosed 58 weeks; study length 60 weeks
property: TD50 (mg/kg/day)
Numbers only, in mg/kg/day.

Exam item: What value of TD50 has been recorded for this entry: Cc1cc(-c2ccc(N)c(C)c2)ccc1N
Marked response: 0.334

====

test system: rodent lifetime carcinogenesis bioassay, tumor incidence TD50; assay: carcinogenic potency in animals, long-term in vivo studies, CPDB compilation (AID 1745844); settings: mouse; strain B6C3F1; females; inhaled; site: pituitary gland; lesion: pars distalis adenoma; dosed 80 weeks; study length 105 weeks
property: TD50

Exam item: Could you share what TD50 was measured for C=CC(=C)C , tested on rodent lifetime carcinogenesis bioassay, tumor incidence TD50?
Marked response: 247 mg/kg/day

====

system: rodent lifetime carcinogenesis bioassay, tumor incidence TD50; assay: carcinogenic potency in animals, long-term in vivo studies, CPDB compilation (AID 1745844); details: rat; strain Wistar W.74; females; in feed; site: any site (literature study); lesion: several types; types named in the paper; dosed 104 weeks; study length 105 weeks
Active and inactive are the calls of the source. The rule behind the calls is not given here.
property: TD50

Exam item: What value of TD50 has been recorded for this entry: [Cl][Cd][Cl]
Marked response: 21.6 mg/kg/day (inactive)

====

system: rodent lifetime carcinogenesis bioassay, tumor incidence TD50; assay: carcinogenic potency in animals, long-term in vivo studies, CPDB compilation (AID 1745844); conditions: mouse; strain NMRI; females; by gavage; site: forestomach; lesion: squamous-cell carcinoma; dosed 68 weeks; study length 75 weeks
property: TD50

Exam item: What value of TD50 has been recorded for this entry: O=CNc1nc(-c2ccc([N+](=O)[O-])o2)cs1
Marked response: 139 mg/kg/day

====

test system: rodent lifetime carcinogenesis bioassay, tumor incidence TD50; test: carcinogenic potency in animals, long-term in vivo studies, CPDB compilation (AID 1745844); settings: mouse; strain B6C3F1; females; inhaled; site: all sites; lesion: malignant lymphoma, lymphocytic type; dosed 83 weeks; study length 104 weeks
property: TD50

Exam item: What value of TD50 has been recorded for this entry: C=CC=C
Marked response: 74.9 mg/kg/day

====

system: rodent lifetime carcinogenesis bioassay, tumor incidence TD50; assay: carcinogenic potency in animals, long-term in vivo studies, CPDB compilation (AID 1745844); conditions: mouse; strain B6C3F1; males; in feed; site: liver; lesion: several types; types named in the paper; dosed 72 weeks; study length 72 weeks
property: TD50

Exam item: What value of TD50 has been recorded for this entry: ClC1=C(Cl)C2(Cl)C3C(Cl)C(Cl)CC3C1(Cl)C2(Cl)Cl (stereo unspecified)
Marked response: 1.68 mg/kg/day

====

test system: rodent lifetime carcinogenesis bioassay, tumor incidence TD50; experiment: carcinogenic potency in animals, long-term in vivo studies, CPDB compilation (AID 1745844); conditions: rat; strain Wistar; males; inhaled; site: lung; lesion: several types; types named in the paper; dosed 26 weeks; study length 130 weeks
property: TD50

Exam item: What value of TD50 has been recorded for this entry: [Cl][Cd][Cl]
Marked response: 0.0106 mg/kg/day

====

test system: rodent lifetime carcinogenesis bioassay, tumor incidence TD50; assay: carcinogenic potency in animals, long-term in vivo studies, CPDB compilation (AID 1745844); settings: rat; strain Colworth (Wistar derived); females; in drinking water; site: liver; lesion: neoplasm of liver cell, bile duct, mesenchyme, Kupffer cell, or unknown; dosed 176 weeks; study length 176 weeks
property: TD50

Exam item: What value of TD50 has been recorded for this entry: CN(C)N=O
Marked response: 0.0424 mg/kg/day

====

system: rodent lifetime carcinogenesis bioassay, tumor incidence TD50; assay: carcinogenic potency in animals, long-term in vivo studies, CPDB compilation (AID 1745844); conditions: mouse; strain Swiss; females; in feed; site: all sites; lesion: malignant lymphoma; dosed 122 weeks; study length 128 weeks
property: TD50

Exam item: Could you share what TD50 was measured for Cc1ncc([N+](=O)[O-])n1CCO , tested on rodent lifetime carcinogenesis bioassay, tumor incidence TD50?
Marked response: 1300 mg/kg/day

====

system: rodent lifetime carcinogenesis bioassay, tumor incidence TD50; experiment: carcinogenic potency in animals, long-term in vivo studies, CPDB compilation (AID 1745844); conditions: rat; strain F344/DuCrj; females; by gavage; site: mammary gland; lesion: fibroadenoma; dosed 104 weeks; study length 104 weeks
Calls of active or inactive are those of the source. How the calls were made is not given here.
property: TD50

Exam item: What value of TD50 has been recorded for this entry: OCC(CO)N[C@H]1C[C@](O)(CO)[C@@H](O)[C@H](O)[C@H]1O
Marked response: 119 mg/kg/day (inactive)

====

tested on: rodent lifetime carcinogenesis bioassay, tumor incidence TD50; experiment: carcinogenic potency in animals, long-term in vivo studies, CPDB compilation (AID 1745844); settings: rat; strain Sprague-Dawley; females; by gavage; site: mammary gland; lesion: adenofibroma; dosed 107 weeks; study length 150 weeks
Active and inactive are the calls of the source. No rule for the calls is given here.
property: TD50

Exam item: What value of TD50 has been recorded for this entry: C1CO1
Marked response: 10 mg/kg/day (inactive)

====

test system: rodent lifetime carcinogenesis bioassay, tumor incidence TD50; experiment: carcinogenic potency in animals, long-term in vivo studies, CPDB compilation (AID 1745844); settings: rat; strain Wistar; females; in feed; site: forestomach; lesion: squamous-cell papilloma; dosed 52 weeks; study length 52 weeks
property: TD50 (mg/kg/day)
Give bare numbers, in mg/kg/day.

Exam item: What value of TD50 has been recorded for this entry: O=P(O)(OCC(Br)CBr)OCC(Br)CBr (stereo unspecified)
Marked response: 47.6

====

Give TD50 for every item shown.
system: rodent lifetime carcinogenesis bioassay, tumor incidence TD50; experiment: carcinogenic potency in animals, long-term in vivo studies, CPDB compilation (AID 1745844); settings: rat; strain Sprague-Dawley; males; by gavage; site: any site (literature study); lesion: malignant tumor; dosed 104 weeks; study length 141 weeks
One number for each entry, in mg/kg/day.

compoundString: Cc1cccc(C)c1
property: TD50
quantitativeResult: 1670

We now examine a further compound.
Exam item: Could you share what TD50 was measured for CCc1ccccc1 , tested on rodent lifetime carcinogenesis bioassay, tumor incidence TD50?
Marked response: 1980

====

system: rodent lifetime carcinogenesis bioassay, tumor incidence TD50; experiment: carcinogenic potency in animals, long-term in vivo studies, CPDB compilation (AID 1745844); settings: mouse; strain Swiss albino; females; by gavage; site: forestomach; lesion: several types; types named in the paper; dosed 52 weeks; study length 109 weeks
property: TD50

Exam item: What value of TD50 has been recorded for this entry: CC=NN(C)C=O
Marked response: 28 mg/kg/day
